# System: T-cell
# measurement.notes: Cytotoxicity against Balb/c mouse T cells assessed as reduction in cell proliferation at 1 uM after 48 hrs by MTT assay
# Format: cell-based
quantity.name: Activity

Example entries and their recorded answers appear below.
Cc1cc(O)c(C)c2c1CC[C@@H]([C@@H](C)C(=O)Nc1nccc(C)c1[N+](=O)[O-])C2 = Toxic
COC(=O)[C@H](C)C1=Cc2c(C)c(OC)cc(C)c2CC1 = Toxic
Cc1cc(O)c(C)c2c1CCC(C(C)CO)C2O (stereo unspecified) = Toxic
Cc1cc(O)c(C)c2c1CC[C@@H]([C@@H](C)C(=O)O)C2 = Toxic
CCOC(=O)[C@H](C)c1ccc2c(C)cc(OC)c(C)c2c1 = Non-Toxic

Prompt line: Suppose we examine the compound Cc1cc(O)c(C)c2c1CC[C@@H]([C@@H](C)C(=O)N1CCOCC1)C2 ; what Activity value has been reported?
Response line: Non-Toxic

====

# Test system: B-cell
# measurement.notes: Immunosuppressive activity in Balb/c mouse B cells assessed as LPS-induced cell proliferation at 10 uM after 48 hrs by MTT assay relative to control
# Type: functional
Can you tell me Activity for the items I'm about to list?
I only need the number, in %, no unit after it.

Prompt line: Suppose we examine the molecule Cc1c(O)c([N+](=O)[O-])c(C)c2c1[C@@H]1OC(=O)[C@@H](C)[C@@H]1CC2 ; what Activity value has been reported?
Response line: -30.08

Prompt line: Suppose we examine the molecule CC(=O)Nc1ccc(-n2nncc2COc2cc(C)c3c(c2C)[C@@H]2OC(=O)[C@@H](C)[C@@H]2CC3)cc1 ; what Activity value has been reported?
Response line: -36.84

Prompt line: Suppose we examine the molecule CC1=C2[C@H]3OC(=O)[C@@H](C)[C@@H]3CC[C@@]2(C)C=CC1=O ; what Activity value has been reported?
Response line: -24.17

Prompt line: Suppose we examine the molecule Cc1cc(OCc2cnnn2/C=C/c2ccccc2)c(C)c2c1CC[C@H]1[C@H](C)C(=O)O[C@@H]21 ; what Activity value has been reported?
Response line: -7.69

Prompt line: Suppose we examine the molecule Cc1cc(OCc2cnnn2-c2ccc(C=O)cc2)c(C)c2c1CC[C@H]1[C@H](C)C(=O)O[C@@H]21 ; what Activity value has been reported?
Response line: -22.5

Prompt line: Suppose we examine the molecule CC(=O)Oc1cc(C)c2c(c1C)C1OC(OC(C)=O)C(C)C1CC2 (configuration not stated) ; what Activity value has been reported?
Response line: -28.02

Prompt line: Suppose we examine the molecule Cc1cc(OCc2cnnn2-c2ccc3c(c2)OCO3)c(C)c2c1CC[C@H]1[C@H](C)C(=O)O[C@@H]21 ; what Activity value has been reported?
Response line: -50.52

====

Can you tell me inhibition for the items I'm about to list?
# assayed.target: UniProtKB P01375
# Sequence (P01375 whole entry): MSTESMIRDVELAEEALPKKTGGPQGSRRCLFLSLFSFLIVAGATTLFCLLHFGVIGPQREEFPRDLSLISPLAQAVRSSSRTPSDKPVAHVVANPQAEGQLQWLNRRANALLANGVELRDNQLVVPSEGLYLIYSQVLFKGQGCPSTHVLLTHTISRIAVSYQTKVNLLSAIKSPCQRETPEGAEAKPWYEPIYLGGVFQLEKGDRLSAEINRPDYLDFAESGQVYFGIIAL
# measurement.notes: Inhibition of TNFalpha (unknown origin) at 1 uM relative to control
I only need the number, in %, no unit after it.

Prompt line: Suppose we examine the compound CC(=O)OC1=C(C)C2=C3OC(=O)C(C)=C3CC[C@@]2(C)CC1 ; what inhibition value has been reported?
Response line: 3.03

Prompt line: Suppose we examine the compound C[C@@H]1C[C@H]2[C@@H]3CCC4=CC(=O)C=C[C@]4(C)[C@@]3(F)[C@@H](O)C[C@]2(C)[C@@]1(O)C(=O)CO ; what inhibition value has been reported?
Response line: 49.9

Prompt line: Suppose we examine the compound CC(=O)Oc1cc(C)c2c(c1C)C1OC(OC(C)=O)C(C)C1CC2 (stereo not given) ; what inhibition value has been reported?
Response line: 0.34
